These measurements were taken from ChEMBL document CHEMBL3507680.

test.protocol: Human HepG2 cell viability assay in 384 well format
Assay type: toxicity, cell-based
Design: dose 125 nL, time 70.5 hour; concentration not given beside the values
experimental.context: HepG2 cells, read-out: Inhibition
Each entry below lists one item and its recorded cytotoxicity at 70.5 h value.
Entry rule: numbers only, all in %.

Give reported cytotoxicity at 70.5 h value for "c1ccc(NCc2cn3c(n2)CN(Cc2nccs2)CC3)nc1"
-0.336

Consider the molecule "c1cnc2c(C3CCN(Cc4ccsc4)CC3)n[nH]c2n1" . State its measured cytotoxicity at 70.5 h.
42.8

Please supply the value of reported cytotoxicity at 70.5 h for the item "CS(=O)(=O)NCc1cc(=O)n2c(n1)CN(Cc1ccco1)CCC2"
-1.24

Supply cytotoxicity at 70.5 h value. Item: "Cc1nn(C)c(C)c1CCC(=O)Nc1nnc(C2CC2)s1"
22.3

Recall and state the measured cytotoxicity at 70.5 h for O=C(c1cscn1)N1CCCC2(CCN2Cc2cccc(F)c2)C1 (configuration not stated) .
-0.0272

Identify the reported cytotoxicity at 70.5 h for the following entry. "COc1ncc(CN(CCCN2CCOCC2)Cc2ccc(C)o2)cn1"
-4.04

Consider the molecule "CCC(=O)N(CCN(C)C)Cc1ccc(F)c(F)c1" . State its measured cytotoxicity at 70.5 h.
-13.7

Name the recorded cytotoxicity at 70.5 h of the molecule listed here: "Cc1noc(C)c1CNCc1c(C(C)C)nn(C)c1N1CCOCC1"
-10.5

---

test.protocol: Human HepG2 cell viability assay in 384 well format
Type: toxicity, cell-based
Set-up: dose 125 nL, time 70.5 hour; concentration not given beside the values
experimental.context: HepG2 cells, read-out: Inhibition
recorded.endpoint: cytotoxicity at 70.5 h (%)
# unit: % | format: bare number

CN(Cc1cnn(C)c1)C(=O)NCC1CCS(=O)(=O)C1 (stereo unspecified)
-4.43
CCc1cc(C)c(C(=O)N2CCCC(c3nnn[nH]3)C2)o1 (stereo unspecified)
-0.273
O=C(CCN1CCOC1=O)Nc1cnn(-c2ccccc2Cl)c1
-7.73
COCCn1ccnc1C1CCCN(C(=O)c2cc(F)cc(F)c2)C1 (stereo unspecified)
-3.01
CCc1ncnc2c1CCN(S(=O)(=O)CC)CC2
-7.89
CN(C)CCCNCCC(c1ccccc1)C1CCOC(C)(C)C1 (stereo unspecified)
-3.41
CSCC(=O)Nc1cccc(Oc2ccccn2)c1
9.83
COCCN1C[C@@H]2CCCO[C@@H]2[C@H](NC(=O)c2cnccn2)C1
-0.647
NC(=O)CN1CCN(C(=O)c2cc(Cl)cc3cccnc23)CC1
19.4
Cc1ccnc(NC(=O)c2ccc(F)c(S(=O)(=O)NC3CC3)c2)c1
-7.61

--- query ---
Identify cytotoxicity at 70.5 h associated with the compound CC(C)c1noc(CCCC(=O)N2CCN(C)CC2c2ccccc2)n1 (stereo unspecified)
-8.67

---

The entries below are paired with their reported cytotoxicity at 70.5 h.
test.protocol: Human HepG2 cell viability assay in 384 well format
Format: toxicity, cell-based
Set-up: dose 125 nL, time 70.5 hour; concentration not given beside the values
experimental.context: HepG2 cells, read-out: Inhibition
Please reply with the bare figure in % and do not write the unit itself.

COc1ccc(CN2CCn3cc(CNC(=O)CC4CC4)nc3C2)cc1
-8.89

Next item in the queue.
// Input: "Cc1csc(CN(C)c2cc(C)nc3c(C)c(C)nn23)n1" . Output its cytotoxicity at 70.5 h only.
-7.34

---

test.protocol: Human HepG2 cell viability assay in 384 well format
Format: toxicity, cell-based
Design: dose 125 nL, time 70.5 hour; concentration not given beside the values
experimental.context: HepG2 cells, read-out: Inhibition
# cytotoxicity at 70.5 h annotations
Enter your answer as a number in %; do not include the unit.

// solved cases for cytotoxicity at 70.5 h follow
CC(Oc1ccc2c(c1)OCO2)C(=O)N1CCC(N2CCOCC2)CC1 (configuration not stated)
-2.72
CCc1ccc(CN2CCC3(CC2)NC(=O)CC3c2ccncc2)o1 (configuration not stated)
-23
CNc1nc(C)c(C(=O)N2C[C@H]3CC[C@@H]2CN(c2cnccn2)C3)s1
-6.37
O=C(Nc1cnc(Oc2ccccc2)nc1)C1CC1
-2.39

Give the value of cytotoxicity at 70.5 h reported for the following: "CN(Cc1ccsc1)C(=O)c1cc2c([nH]c1=O)CCCC2=O"
-12.8

Hello, please tell me recorded cytotoxicity at 70.5 h for this one: Cc1ccccc1CSc1nc(N)cc(N2CCOC(C(N)=O)C2)n1 (configuration not stated)
1.56

In one line, give reported cytotoxicity at 70.5 h of the entry COc1ncccc1C(=O)N1CCC2(CC1)CC(OC)CO2 (configuration not stated) .
-6.77

State, in one line, measured cytotoxicity at 70.5 h of "Clc1ccc2nncc(N3CCCCC3)c2c1"
-10.7

Provide one value: measured cytotoxicity at 70.5 h of NC(=O)C1CCCN(C(=O)c2ccc(-n3ccnc3)cc2)C1 (configuration not stated)
-5.88

Recall and state the measured cytotoxicity at 70.5 h for "Cc1ccc(C(=O)N2CCC(C(F)(F)F)CC2)cc1N1CCNC1=O" .
4.91

Answer with the recorded cytotoxicity at 70.5 h of Cc1nn(C)c(C)c1C1CCCN1C(=O)c1ccc2nnc(C)n2c1 (configuration not stated) only.
-2.36

Identify measured cytotoxicity at 70.5 h associated with "COC(=O)c1cccn1C1CCN(Cc2ccccc2)CC1"
15.7

Return value of cytotoxicity at 70.5 h for input O=C1NCCCCC1NC(=O)N1CCCc2ccccc21 (configuration not stated) , no commentary.
-12.7

Kindly indicate its recorded cytotoxicity at 70.5 h. Item: "COc1c(CNCCc2c[nH]c3ccccc23)c(C(C)C)nn1C"
2.12

Consider the molecule "CCCN1CCN(C(=O)c2cccc3cccnc23)[C@H]2CS(=O)(=O)C[C@H]21" and give its recorded cytotoxicity at 70.5 h.
25.6

Indicate its recorded cytotoxicity at 70.5 h; the molecule in question is "Cc1ncsc1C(=O)NC1CCN(CC(=O)N(C)C(C)(C)C#N)CC1"
28.1

Please give the documented cytotoxicity at 70.5 h of CC(=O)c1cccc(OCCCC(=O)NC(C#N)CC(C)C)c1 (configuration not stated)
-9.77

Give me measured cytotoxicity at 70.5 h, please, for this molecule: CC(C)c1nnc2n1CC(CNc1cnc3ccccc3n1)CC2 (configuration not stated)
-9.13

Quick one: give measured cytotoxicity at 70.5 h for Cc1nc(CN(C)C2CCN(CC3CCCCC3)C2)no1 (configuration not stated)
-11.6

Please give measured cytotoxicity at 70.5 h of the following entry: "O=C1C[C@H]2[C@@H](CCN2C(=O)c2ccoc2)N1CCN1CCOCC1"
-7.58

Give a short answer stating reported cytotoxicity at 70.5 h for "CNC(=O)[C@@H]1C[C@@H](n2cc(-c3ccc(Cl)cc3)nn2)CN1" .
13.9

Identify cytotoxicity at 70.5 h associated with the molecule "CCNc1ncc(C(=O)NCc2ccc(F)c(C(F)(F)F)c2)cn1"
20.6

Output measured cytotoxicity at 70.5 h for this item: "Cn1ccnc1C(=O)NCCS(=O)(=O)c1ccc(C(C)(C)C)cc1"
-3.28

---

test.protocol: Human HepG2 cell viability assay in 384 well format
Format: toxicity, cell-based
Set-up: dose 125 nL, time 70.5 hour; concentration not given beside the values
experimental.context: HepG2 cells, read-out: Inhibition
recorded.endpoint: cytotoxicity at 70.5 h (%)
Field: numeric (%). Do not append units.

CC1CCCN(S(=O)(=O)N2CCOC3(CCCC3)C2)C1 (stereo unspecified)
10.1
CN(Cc1nc(Cc2cccc(C(F)(F)F)c2)no1)CC1CCCCO1 (stereo unspecified)
-11.5
O=C(CCCn1cncn1)N1CCC2(CCCN(CC3CC3)C2=O)C1 (stereo unspecified)
18.3
O=C(Nc1cccc(N2CCN(CC3CC3)CC2)c1)N1CCCC1
0.629
COCC(=O)N1CCCC(c2nc(N)ncc2-c2cccc(F)c2)C1 (stereo unspecified)
2.19
CCC(C)N(Cc1cccnc1)C(=O)c1ccc(F)c(O)c1 (stereo unspecified)
12.9
CN(Cc1ccco1)Cc1cncc2c1CCN(Cc1ccoc1)C2
-8.02
COc1ccc(C(=O)CCC(=O)NCc2ncc(C)s2)cc1F
-9.89

Tell us which cytotoxicity at 70.5 h value is on record for "Cc1ccc(F)cc1C(=O)N1CCN(S(C)(=O)=O)[C@@H](C)C1"
-82.4

Indicate the recorded cytotoxicity at 70.5 h value for this compound: "O=S(=O)(CCCN1CCc2c(ncn2C2CC2)C1)c1ccccc1"
1.18

Answer with reported cytotoxicity at 70.5 h of "CN(C)C[C@H]1C[C@@H](CO)CN(C(=O)c2cc(=O)[nH]c3cc(F)ccc23)C1"
-2.71

---

Recorded cytotoxicity at 70.5 h for the following compounds
test.protocol: Human HepG2 cell viability assay in 384 well format
Type: toxicity, cell-based
Parameters: dose 125 nL, time 70.5 hour; concentration not given beside the values
experimental.context: HepG2 cells, read-out: Inhibition
Write it as a number; the unit % goes unstated.

Example entries begin here.
CC1CCN(C(=O)NCCc2cc(F)ccc2F)C1 (stereo unspecified)
-11.9
Cc1ccc(CN2C[C@@H]3CCCO[C@@H]3[C@H](N(C)Cc3ccco3)C2)o1
-9.18
Cc1cccc(C)c1OCCNC(=O)CN1CCN(C)CC1C (stereo unspecified)
16.7
CNC(=O)c1cn2cc(-c3ccccc3Cl)n(CC3CC3)c(=O)c2n1
15.9
O=C(CN1CC(n2cccn2)C1)NCCC1=CCCCC1
-6.23

Provide cytotoxicity at 70.5 h value for the following compound: "Cc1cc(CNC2(CO)CCOCC2)ccc1Br"
-0.894
